B1: LINE1-full (parent)
chain: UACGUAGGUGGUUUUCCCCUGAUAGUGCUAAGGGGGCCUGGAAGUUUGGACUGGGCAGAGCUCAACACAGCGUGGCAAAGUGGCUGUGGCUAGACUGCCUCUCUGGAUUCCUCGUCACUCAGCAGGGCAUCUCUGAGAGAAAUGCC

Variants of: B1
Assay: self-cleavage, relative activity (ratio to wild type); higher = more cleavage; in vitro, sequencing; the parent is a self-cleaving ribozyme
Value type: self-cleavage
Could you respond with only the numeric value?

A selection of reference data follows.
A77G U115A | 2.25
U26C U45A | 0.99
U104G C123U | 1.25

Problem: Recorded self-cleavage for G35C U132C , please?
Solution: 1.53
